test system: KBVIN; assay: Inhibition of Pgp-mediated multidrug resistance in human KBVIN cells assessed as chemosensitization activity measured by increase in vincristine-induced cytotoxicity at 1 ug/mL by SRB assay relative to untreated control; type: cell-based
measure_name: fold change (FC)

Examples with their reported fold change (FC) follow.
query_smiles=CCc1ccc(C(=O)O[C@@H]2c3c(ccc4c(=O)cc(CC)oc34)OC(C)(C)[C@@H]2OC(=O)c2ccc(CC)cc2)cc1 meas_value=20.3
query_smiles=CCc1cc(=O)c2ccc3c(c2o1)[C@@H](OC(=O)C1CCCCC1)[C@@H](OC(=O)C1CCCCC1)C(C)(C)O3 meas_value="< 12.2"
query_smiles=CCc1cc(=O)c2ccc3c(c2o1)[C@@H](OC(=O)CCc1ccccc1)[C@@H](OC(=O)CCc1ccccc1)C(C)(C)O3 meas_value=106

Proceeding to the next compound to report its fold change (FC).
Notebook: pull reported fold change (FC) for KBVIN, entry CCc1cc(=O)c2ccc3c(c2o1)[C@@H](OCc1ccccc1)[C@@H](OCc1ccccc1)C(C)(C)O3
40.7

---

system: KBVIN; test: Inhibition of Pgp-mediated multidrug resistance in human KBVIN cells assessed as chemosensitization activity measured by increase in vincristine-induced cytotoxicity at 1 ug/mL by SRB assay relative to untreated control; format: cell-based
Listed here are compounds together with their documented fold change (FC).

Examples with their reported fold change (FC) follow.
query_smiles=CCc1cc(=O)c2ccc3c(c2o1)[C@@H](OC(=O)c1ccccc1)[C@@H](OC(=O)c1ccccc1)C(C)(C)O3 meas_value="< 12.2"
query_smiles=CCCCN(CCCC)C(=O)O[C@@H]1c2c(ccc3c(=O)cc(CC)oc23)OC(C)(C)[C@@H]1OC(=O)N(CCCC)CCCC meas_value="< 12.2"
query_smiles=CCc1cc(=O)c2ccc3c(c2o1)[C@@H](OC(=O)N1CCCCC1)[C@@H](OC(=O)N1CCCCC1)C(C)(C)O3 meas_value=22.2
query_smiles=CCc1cc(=O)c2ccc3c(c2o1)[C@@H](OC(=O)c1ccc([N+](=O)[O-])cc1)[C@@H](OC(=O)c1ccc([N+](=O)[O-])cc1)C(C)(C)O3 meas_value=203
query_smiles=CCc1cc(=O)c2ccc3c(c2o1)[C@@H](OC(=O)c1ccc(C(F)(F)F)cc1)[C@@H](OC(=O)c1ccc(C(F)(F)F)cc1)C(C)(C)O3 meas_value=16.3
query_smiles=CCc1cc(=O)c2ccc3c(c2o1)[C@@H](OC(=O)c1ccc(OC)cc1)[C@@H](OC(=O)c1ccc(OC)cc1)C(C)(C)O3 meas_value=257
query_smiles=CCc1cc(=O)c2ccc3c(c2o1)[C@@H](OC(=O)Cc1ccc(OC)cc1)[C@@H](OC(=O)Cc1ccc(OC)cc1)C(C)(C)O3 meas_value=34.4
query_smiles=CCc1cc(=O)c2ccc3c(c2o1)[C@@H](OC(=O)c1ccccc1C(F)(F)F)[C@@H](OC(=O)c1ccccc1C(F)(F)F)C(C)(C)O3 meas_value="< 12.2"
query_smiles=CCc1cc(=O)c2ccc3c(c2o1)[C@@H](OC(=O)N1CCCC1)[C@@H](OC(=O)N1CCCC1)C(C)(C)O3 meas_value=24.9
query_smiles=CCc1cc(=O)c2ccc3c(c2o1)[C@@H](OC(=O)c1ccc(C#N)cc1)[C@@H](OC(=O)c1ccc(C#N)cc1)C(C)(C)O3 meas_value=188

Proceeding to the next compound to report its fold change (FC).
Given CCc1cc(=O)c2ccc3c(c2o1)[C@@H](OC(=O)N(C)C)[C@@H](OC(=O)N(C)C)C(C)(C)O3 , state its recorded fold change (FC).
< 12.2
